Protocol details: Stability evaluation of solution formulation (Experimental Example 2)
Assay type: physicochemical
Condition label: solution formulation, pH4.0, 0 week
Parameter: Production rate of Alvocidib (%)
Report the value in % with no unit label.

Compound: CN1CC[C@H](c2c(OC(=O)N(C)CCN)cc(O)c3c(=O)cc(-c4ccccc4Cl)oc23)[C@H](O)C1 [Comparative Example 13, reference compound]
Production rate of Alvocidib [%]: 0.2

Challenge: Determine its reported Production rate of Alvocidib: CNCCN(C)C(=O)Oc1cc(O)c2c(=O)cc(-c3ccccc3Cl)oc2c1[C@H]1CCN(C)C[C@H]1O [Comparative Example 14, reference compound]
Response given: 2.2

Challenge: Identify measured Production rate of Alvocidib associated with CCN(C[C@@H]1CCCCN1)C(=O)Oc1cc(O)c2c(=O)cc(-c3ccccc3Cl)oc2c1[C@H]1CCN(C)C[C@H]1O [Example 1, ditrifluoroacetate]
Response given: 0.0

====

Protocol details: Evaluation of conversion rate to active form in buffer solution (Experimental Example 1)
Format: physicochemical
Condition label: pH6.5, 2 hr, 37° C., 25 umol/L in buffer solution
Checkbox rule: Production rate of Alvocidib lower than 40% = Criterion met; Production rate of Alvocidib not lower than 40% = Criterion not met.

Previously resolved entries follow.
Compound: CN1CC[C@H](c2c(OC(=O)N(CCC(F)(F)F)CC3CCCCN3)cc(O)c3c(=O)cc(-c4ccccc4Cl)oc23)[C@H](O)C1 (some centres unmarked) [Example 13]
Qualitative label: Criterion not met

Compound: CN1CC[C@H](c2c(OC(=O)N(C)C[C@H]3CCCCN3)cc(O)c3c(=O)cc(-c4ccccc4Cl)oc23)[C@H](O)C1 [Example 4]
Qualitative label: Criterion met

Compound: CCCN(CC1CCCCN1)C(=O)Oc1cc(O)c2c(=O)cc(-c3ccccc3Cl)oc2c1[C@H]1CCN(C)C[C@H]1O (some centres unmarked) [Example 9]
Qualitative label: Criterion met

Compound: CCCN(C[C@@H]1CCCCN1)C(=O)Oc1cc(O)c2c(=O)cc(-c3ccccc3Cl)oc2c1[C@H]1CCN(C)C[C@H]1O [Example 5]
Qualitative label: Criterion met

Compound: CN1CC[C@H](c2c(OC(=O)N(C)CC3CCCCN3)cc(O)c3c(=O)cc(-c4ccccc4Cl)oc23)[C@H](O)C1 (some centres unmarked) [Example 8]
Qualitative label: Criterion met

Compound: CN1CC[C@H](c2c(OC(=O)N(CCCC(F)(F)F)CC3CCCCN3)cc(O)c3c(=O)cc(-c4ccccc4Cl)oc23)[C@H](O)C1 (some centres unmarked) [Example 14]
Qualitative label: Criterion not met

Compound: CCNC(=O)Oc1cc(O)c2c(=O)cc(-c3ccccc3Cl)oc2c1[C@H]1CCN(C)C[C@H]1O [Comparative Example 1, reference compound]
Qualitative label: Criterion not met

Field: next compound
Challenge: Is 40% strictly greater than the compound's reported Production rate of Alvocidib? compound: CC(C)N(CC1CCCCN1)C(=O)Oc1cc(O)c2c(=O)cc(-c3ccccc3Cl)oc2c1[C@H]1CCN(C)C[C@H]1O (some centres unmarked) [Example 10]
Response given: Criterion met

====

Protocol details: Evaluation of conversion rate to active form in buffer solution (Experimental Example 1)
Assay type: physicochemical
Condition label: pH7.0, 0 hr, 37° C., 25 umol/L in buffer solution
Counter-ions that a name gives are not always drawn.
Each entry below lists one item and its recorded Production rate of Alvocidib value.
Answer with a number only, understood to be in %.

Field: example entries. Status: answers known.
Compound: CCN(C[C@@H]1CCCCN1)C(=O)Oc1cc(O)c2c(=O)cc(-c3ccccc3Cl)oc2c1[C@H]1CCN(C)C[C@H]1O [Example 1, ditrifluoroacetate]
Production rate of Alvocidib [%]: 0.0
//
Compound: CCN(CC1CCCCN1)C(=O)Oc1cc(O)c2c(=O)cc(-c3ccccc3Cl)oc2c1[C@H]1CCN(C)C[C@H]1O (stereo partly shown) [Example 7, dihydrochloride]
Production rate of Alvocidib [%]: 10.9
//
Compound: CCNC(=O)Oc1cc(O)c2c(=O)cc(-c3ccccc3Cl)oc2c1[C@H]1CCN(C)C[C@H]1O [Comparative Example 1, reference compound]
Production rate of Alvocidib [%]: 22.2

Challenge: Supply recorded Production rate of Alvocidib for CN1CC[C@H](c2c(OC(=O)N(C)C[C@H]3CCCCN3)cc(O)c3c(=O)cc(-c4ccccc4Cl)oc23)[C@H](O)C1 here.
Response given: 0.6

Challenge: Give the reported value of Production rate of Alvocidib for this record: CN1CC[C@H](c2c(OC(=O)N(CCCC(F)(F)F)CC3CCCCN3)cc(O)c3c(=O)cc(-c4ccccc4Cl)oc23)[C@H](O)C1 (stereo partly shown)
Response given: 30.7

Challenge: State its Production rate of Alvocidib for this compound: CCN(C[C@H]1CCCCN1)C(=O)Oc1cc(O)c2c(=O)cc(-c3ccccc3Cl)oc2c1[C@H]1CCN(C)C[C@H]1O
Response given: 0.0

Challenge: Note down Production rate of Alvocidib recorded for CN1CC[C@H](c2c(OC(=O)N(C)C[C@@H]3CCCCN3)cc(O)c3c(=O)cc(-c4ccccc4Cl)oc23)[C@H](O)C1
Response given: 0.6

====

Protocol details: Evaluation of conversion rate to active form in buffer solution (Experimental Example 1)
Format: physicochemical
Condition label: pH5.5, 0 hr, 37° C., 25 umol/L in buffer solution
Structures can show the parent of a compound that is named as a salt.
Parameter: Production rate of Alvocidib (%)
Numeric only. Scale: %

Recorded Production rate of Alvocidib, per entry:
Compound: CCN(CC1CCCCN1)C(=O)Oc1cc(O)c2c(=O)cc(-c3ccccc3Cl)oc2c1[C@H]1CCN(C)C[C@H]1O (stereo partly drawn) [Example 7, dihydrochloride]
Result unit: %
Production rate of Alvocidib: 0.0
//
Compound: CCCN(CC1CCCCN1)C(=O)Oc1cc(O)c2c(=O)cc(-c3ccccc3Cl)oc2c1[C@H]1CCN(C)C[C@H]1O (stereo partly drawn)
Result unit: %
Production rate of Alvocidib: 1.4

Moving on to another compound below.
Challenge: Given the compound CN1CC[C@H](c2c(OC(=O)N(CCCC(F)(F)F)CC3CCCCN3)cc(O)c3c(=O)cc(-c4ccccc4Cl)oc23)[C@H](O)C1 (stereo partly drawn) , write its reported Production rate of Alvocidib.
Response given: 29.0

====

Protocol details: Evaluation of conversion rate to active form in buffer solution (Experimental Example 1)
Format: physicochemical
Condition label: pH5.0, 1 hr, 37° C., 25 umol/L in buffer solution
Structures can show the parent of a compound that is named as a salt.
Parameter: Residual rate
Please provide the amount together with its unit, number first.

// solved cases for Residual rate follow
Molecule: CN1CC[C@H](c2c(OC(=O)N(C)CC3CCCCN3)cc(O)c3c(=O)cc(-c4ccccc4Cl)oc23)[C@H](O)C1 (some centres unmarked)
Assay value: 95.0%

Molecule: CN1CC[C@H](c2c(OC(=O)N(C)C[C@H]3CCCCN3)cc(O)c3c(=O)cc(-c4ccccc4Cl)oc23)[C@H](O)C1
Assay value: 98.0%

Molecule: CCN(CC1CCCCN1)C(=O)Oc1cc(O)c2c(=O)cc(-c3ccccc3Cl)oc2c1[C@H]1CCN(C)C[C@H]1O (some centres unmarked) [Example 7, dihydrochloride]
Assay value: 100.0%

Challenge: Check the records and state Residual rate for CCCN(C[C@@H]1CCCCN1)C(=O)Oc1cc(O)c2c(=O)cc(-c3ccccc3Cl)oc2c1[C@H]1CCN(C)C[C@H]1O
Response given: 97.8%

Challenge: Specify Residual rate for CCN(C[C@H]1CCCCN1)C(=O)Oc1cc(O)c2c(=O)cc(-c3ccccc3Cl)oc2c1[C@H]1CCN(C)C[C@H]1O and stop.
Response given: 95.1%

====

Protocol details: Evaluation of conversion rate to active form in buffer solution (Experimental Example 1)
Format: physicochemical
Condition label: pH7.4, 0.5 hr
Parameter: Production rate of Alvocidib (%)
The reply should be a number in %, with the unit left off.

Challenge: Determine its reported Production rate of Alvocidib: CN1CC[C@H](c2c(OC(=O)N(C)CCN)cc(O)c3c(=O)cc(-c4ccccc4Cl)oc23)[C@H](O)C1 [Comparative Example 13, reference compound]
Response given: 90.5

Challenge: Assign Production rate of Alvocidib to the following record: CCNC(=O)O[C@@H]1CN(C)CC[C@@H]1c1c(O)cc(O)c2c(=O)cc(-c3ccccc3Cl)oc12 [Comparative Example 4, reference compound]
Response given: 1.8

Challenge: Identify measured Production rate of Alvocidib corresponding to CCCCCCC(=O)O[C@@H]1CN(C)CC[C@@H]1c1c(O)cc(O)c2c(=O)cc(-c3ccccc3Cl)oc12 [Comparative Example 11, reference compound]
Response given: 1.2

Challenge: Quick one: give measured Production rate of Alvocidib for CN1CC[C@H](c2c(O)cc(O)c3c(=O)cc(-c4ccccc4Cl)oc23)[C@H](OC(=O)CN)C1 [Comparative Example 8, reference compound]
Response given: 34.2

Challenge: Tell me its Production rate of Alvocidib given CNCCN(C)C(=O)Oc1cc(O)c2c(=O)cc(-c3ccccc3Cl)oc2c1[C@H]1CCN(C)C[C@H]1O [Comparative Example 14, reference compound] as the entry.
Response given: 97.3

Challenge: Indicate its recorded Production rate of Alvocidib; the molecule in question is CN1CC[C@H](c2c(O)cc(O)c3c(=O)cc(-c4ccccc4Cl)oc23)[C@H](OC(=O)c2ccccc2F)C1 [Comparative Example 12]
Response given: 1.5
